// reported Transcriptional activity efficacy for each item listed
Biological target: hVDR (Homo sapiens)
Construct: expressed in transfected cells; host or cells: HEK293
Sequence (P11473 1-427): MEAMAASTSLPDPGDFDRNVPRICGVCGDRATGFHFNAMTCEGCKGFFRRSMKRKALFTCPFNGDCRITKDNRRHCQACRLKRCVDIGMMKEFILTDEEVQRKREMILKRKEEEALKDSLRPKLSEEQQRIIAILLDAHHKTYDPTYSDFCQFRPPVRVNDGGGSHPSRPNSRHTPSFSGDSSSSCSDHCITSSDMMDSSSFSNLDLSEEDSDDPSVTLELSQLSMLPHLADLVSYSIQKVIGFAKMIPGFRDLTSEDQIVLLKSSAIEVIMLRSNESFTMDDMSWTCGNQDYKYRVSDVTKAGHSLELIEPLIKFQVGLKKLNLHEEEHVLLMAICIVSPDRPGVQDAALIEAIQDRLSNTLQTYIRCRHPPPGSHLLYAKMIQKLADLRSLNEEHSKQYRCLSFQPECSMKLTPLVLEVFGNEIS
Experiment: VDR transactivation luciferase reporter assay in HEK293 cells (SPP×3-tk-LUC)
Type: cell-based
Conditions: 1,25(OH)2D3 = 100%
Please state the figure in %; there is no need to write the unit.

1. C=C1[C@H](O)CC(=C/C=C2\CCC[C@]3(C)[C@@H]([C@H](C)CC#C[C@@](O)(CCCC)C45CC6CC(CC(C6)C4)C5)CC[C@@H]23)C[C@H]1O [ADKM5] | 83
2. C=C1[C@H](O)CC(=C/C=C2\CCC[C@]3(C)[C@@H]([C@H](C)CC#C[C@](C)(O)C45CC6CC(CC(C6)C4)C5)CC[C@@H]23)C[C@H]1O [ADKM1] | 78
3. C=C1[C@H](O)CC(=C/C=C2\CCC[C@]3(C)[C@@H]([C@H](C)CC#C[C@@](O)(CC)C45CC6CC(CC(C6)C4)C5)CC[C@@H]23)C[C@H]1O [ADKM3] | 90
4. C=C1[C@H](O)CC(=C/C=C2\CCC[C@]3(C)[C@@H]([C@H](C)CC#C[C@](O)(CC)C45CC6CC(CC(C6)C4)C5)CC[C@@H]23)C[C@H]1O [ADKM4] | 104
5. C=C1[C@H](O)CC(=C/C=C2\CCC[C@]3(C)[C@@H]([C@H](C)CC#C[C@](O)(CCCC)C45CC6CC(CC(C6)C4)C5)CC[C@@H]23)C[C@H]1O [ADKM6] | 95

Exercise: Which Transcriptional activity efficacy value belongs to C=C1[C@H](O)CC(=C/C=C2\CCC[C@]3(C)[C@@H]([C@H](C)CC#C[C@@](C)(O)C45CC6CC(CC(C6)C4)C5)CC[C@@H]23)C[C@H]1O [ADKM2] ?
Solution: 101

This collection of values is drawn from paper PMC10377034.
